Where do the numbers come from? From patent US20200172549A1.

Tested on: PANC-1
experimental-details: Phototoxicity (PDT), MTT assay, PANC-1
Format: cell-based
test-settings: 12.5 μM photosensitizer, 3 h, 50 mW 0.09 J/cm^2 laser 100 sec, 72 h incubation
Overview of reported Cell viability, Phototoxicity against PANC-1 across a group of compounds:
metric-name: Cell viability, Phototoxicity against PANC-1 (%)

[
  {
    "compound": "C=Cc1c(C)c2cc3nc(c(CC(=O)OC)c4[nH]c(cc5nc(cc1[nH]2)C(C)=C5CC)c(C)c4C(=O)NCCCNC(=O)CCCC(=O)Oc1ccc(/C=C/C(=O)CC(=O)/C=C/c2ccc(O)c(OC)c2)cc1OC)C(CCC(=O)OC)C3C (centres unmarked) [Compound 7, Chlorine e6-curcumin Conjugate (7)]",
    "numeric-value": 12.33
  },
  {
    "compound": "C=Cc1c(C)c2cc3nc(c(CC(=O)OC)c4[nH]c(cc5nc(cc1[nH]2)C(C)=C5CC)c(C)c4C(=O)NCCCOCCOCCOCCCNC(=O)CCCC(=O)Oc1ccc(/C=C/C(=O)CC(=O)/C=C/c2ccc(O)c(OC)c2)cc1OC)[C@@H](CCC(=O)OC)[C@@H]3C [Compound 16, Chlorine e6-curcumin Conjugate (16)]",
    "numeric-value": 59.07
  }
]

----------
Tested on: PANC-1
experimental-details: Phototoxicity (PDT), MTT assay, PANC-1
Assay type: cell-based
test-settings: 3.12 μM photosensitizer, 3 h, 50 mW 0.09 J/cm^2 laser 100 sec, 72 h incubation
metric-name: Cell viability, Phototoxicity against PANC-1

[
  {
    "compound": "C=Cc1c(C)c2cc3nc(c(CC(=O)O)c4[nH]c(cc5nc(cc1[nH]2)C(C)=C5CC)c(C)c4C(=O)O)[C@@H](CCC(=O)O)[C@@H]3C [Compound 3, Chlorin e6]",
    "result": "104.37%"
  },
  {
    "compound": "C=Cc1c(C)c2cc3nc(c(CC(=O)OC)c4[nH]c(cc5nc(cc1[nH]2)C(C)=C5CC)c(C)c4C(=O)NCCOCCOCCNC(=O)CCCC(=O)Oc1ccc(/C=C/C(=O)CC(=O)/C=C/c2ccc(O)c(OC)c2)cc1OC)C(CCC(=O)OC)C3C (centres unmarked) [Compound 13, Chlorine e6-curcumin Conjugate (13)]",
    "result": "8.51%"
  },
  {
    "compound": "C=Cc1c(C)c2cc3nc(c(CC(=O)OC)c4[nH]c(cc5nc(cc1[nH]2)C(C)=C5CC)c(C)c4C(=O)NCCCNC(=O)CCCC(=O)Oc1ccc(/C=C/C(=O)CC(=O)/C=C/c2ccc(O)c(OC)c2)cc1OC)C(CCC(=O)OC)C3C (centres unmarked) [Compound 7, Chlorine e6-curcumin Conjugate (7)]",
    "result": "66.14%"
  },
  {
    "compound": "C=Cc1c(C)c2cc3nc(c(CC(=O)OC)c4[nH]c(cc5nc(cc1[nH]2)C(C)=C5CC)c(C)c4C(=O)NCCCCCCNC(=O)CCCC(=O)Oc1ccc(/C=C/C(=O)CC(=O)/C=C/c2ccc(O)c(OC)c2)cc1OC)C(CCC(=O)OC)C3C (centres unmarked) [Compound 10, Chlorine e6-curcumin Conjugate (10)]",
    "result": "99.74%"
  },
  {
    "compound": "C=Cc1c(C)c2cc3nc(c(CC(=O)OC)c4[nH]c(cc5nc(cc1[nH]2)C(C)=C5CC)c(C)c4C(=O)NCCCOCCOCCOCCCNC(=O)CCCC(=O)Oc1ccc(/C=C/C(=O)CC(=O)/C=C/c2ccc(O)c(OC)c2)cc1OC)[C@@H](CCC(=O)OC)[C@@H]3C [Compound 16, Chlorine e6-curcumin Conjugate (16)]",
    "result": "97.36%"
  }
]
